System: A549
Experiment: NCI tumour cell line growth inhibition, 48 h
Activity calls are given as the source filed them. Rule as the data show it: active = GI50 up to about 1.1 µM and inactive = higher.
Response enum: active, inactive

Please review the following examples before continuing.
{"COMPOUND": "O=C(O)c1nc2cc(Cl)ccc2[nH]c1=O", "SUBJECT_OF_TEST": "A549", "CLASSIFICATION": "inactive"}
{"COMPOUND": "Nc1nc(SCc2ccccc2[N+](=O)[O-])c2[nH]cnc2n1", "SUBJECT_OF_TEST": "A549", "CLASSIFICATION": "inactive"}
{"COMPOUND": "Cc1ccc(S(=O)(=O)N/N=C2/C3C(CC2(C)C)C2(C)CCCC3(C)C2O)cc1 (configuration not stated)", "SUBJECT_OF_TEST": "A549", "CLASSIFICATION": "inactive"}
{"COMPOUND": "NCCCC(N/C=C1/N=C(c2ccccc2)OC1=O)C(=O)O (configuration not stated)", "SUBJECT_OF_TEST": "A549", "CLASSIFICATION": "inactive"}
{"COMPOUND": "CCN(CC)CCn1nc2c3c(c(NCCN)ccc31)Sc1cc(O)ccc1-2", "SUBJECT_OF_TEST": "A549", "CLASSIFICATION": "active"}
{"COMPOUND": "COc1cc(CNc2ccc3nc4n(c(=O)c3c2)CCCCC4)cc(OC)c1OC", "SUBJECT_OF_TEST": "A549", "CLASSIFICATION": "inactive"}

Note: attention shifts to another entry.
Dear all, I need the recorded test outcome for c1ccc(C2N3CCCCC3[C@@H]3c4[nH]c5ccccc5c4CCN23)cc1 (some centres not stated) , thank you.
inactive

###

Consider the following compounds; for each one, report its GI50.
Test system: T47D
Test: NCI tumour cell line growth inhibition, 48 h
Active and inactive are the calls of the source. Cut-off read from the data, not from the text of the source: active = GI50 up to about 1.1 µM and inactive = higher.

{"COMPOUND": "COc1cccc(CCCNC(=O)Cc2cc(OC)c(OC)cc2CO)c1", "SUBJECT_OF_TEST": "T47D", "GI50": "39.1 µM (inactive)"}
{"COMPOUND": "COc1cc2c(cc1OC)C(=O)N(NC1=NCCN1)C2=O", "SUBJECT_OF_TEST": "T47D", "GI50": "> 100 µM (inactive)"}
{"COMPOUND": "N=C(CC(=O)NOC(=O)c1ccccc1)NOC(=O)c1ccccc1", "SUBJECT_OF_TEST": "T47D", "GI50": "> 100 µM (inactive)"}

List reported GI50 for each of these compounds:
1. OC1C2CCC3C2CC(C(O)(c2ccccc2)c2ccccc2)C13 (stereo not given)
2. C[N+](C)(C)c1ncnc2c1ncn2C1CC(O)C(CO)O1 (stereo not given)

1. 79.3 µM (inactive)
2. > 100 µM (inactive)
